- Test system: carbonyl reductase
- Assay Notes: Influence of inhibitors on the carbonyl reductase (residual reductase activity)
- Assay type: biochemical, Kluyveromyces aestuarii
- Protocol Conditions: inhibitor 1 mM; 30, 10 min; activity without any reagent taken as 100
Quantity Measured: Residual activity
Numbers only.

Please look at the items below and tell me Residual activity for each one, in order.
1. O=S(=O)([O-])[O-].[Cu+2] [copper sulfate]
2. O=S(=O)(F)Cc1ccccc1 [Phenylmethanesulfonyl fluoride]
3. NC(=O)CI [iodoacetamide]
4. CCC1(CC)C(=O)NC(=O)NC1=O

*A*
19.0
99.0
84.0
101

###

- System: carbonyl reductase
- Assay Notes: Substrate specificity: reductase activity with various ketones and aldehydes in the presence of a coenzyme
- Type: biochemical, Kluyveromyces aestuarii
- Design: concentration or dose not given beside the values
- Protocol Conditions: reduction reaction; coenzyme NADH; ethyl 4-chloroacetoacetate with NADH taken as 100
Quantity Measured: Relative activity (%)
One number for each entry, in %.

*Q* Consider the compound "CC(=O)C(C)=O" and give its measured Relative activity (%).
*A* 70.6

*Q* Consider the compound COC(=O)CC(C)=O [methyl acetoacetate] and give its measured Relative activity (%).
*A* 0

Please look at the items below and tell me Relative activity (%) for each one, in order.
1. O=Cc1cccnc1
2. CC(=O)CC(C)=O
3. COC(=O)CC(=O)CCl [methyl 4-chloroacetoacetate]
4. CCC=O
5. CCC(=O)C(C)=O
6. CCOC(=O)CC(C)=O [ethyl acetoacetate]

*A*
1. 0
2. 0
3. 13.1
4. 2.5
5. 8.2
6. 0

###

- Test system: carbonyl reductase
- Assay Notes: Substrate specificity: NAD+-dependent dehydrogenase (oxidation) activity
- Format: biochemical, Kluyveromyces aestuarii
- Set-up: concentration or dose not given beside the values
- Protocol Conditions: oxidation reaction; coenzyme NAD+; reduction of ethyl 4-chloroacetoacetate with NADH taken as 100
For each entry below, report its Relative activity (%) value.
Give bare numbers, in %.

Example entries begin here.
*Q* Consider the molecule CCOC(=O)C[C@H](C)O [ethyl (S)-3-hydroxybutyrate] and give its measured Relative activity (%).
*A* 0

*Q* Consider the molecule CCOC(=O)C[C@@H](O)CCl [ethyl (R)-4-chloro-3-hydroxybutyrate] and give its measured Relative activity (%).
*A* 0

*Q* Consider the molecule CC(C)O [Isopropanol] and give its measured Relative activity (%).
*A* 0

Please look at the items below and tell me Relative activity (%) for each one, in order.
1. CCOC(=O)C[C@H](O)CCl [ethyl (S)-4-chloro-3-hydroxybutyrate]
2. CCOC(=O)C[C@@H](C)O [ethyl (R)-3-hydroxybutyrate]

*A*
1: 0; 2: 1.9

###

For each entry below, report its Relative activity (%) value.
- Tested on: carbonyl reductase
- Assay Notes: Substrate specificity: reductase activity with various ketones and aldehydes in the presence of a coenzyme
- Type: biochemical, Kluyveromyces aestuarii
- Set-up: concentration or dose not given beside the values
- Protocol Conditions: reduction reaction; coenzyme NADH; ethyl 4-chloroacetoacetate with NADH taken as 100
Answers are plain numbers, in %.

*Q* Consider the compound "CC(=O)c1ccccc1" and give its measured Relative activity (%).
*A* 0

*Q* Consider the compound "CC(=O)C=O" and give its measured Relative activity (%).
*A* 0

# evaluate next
*Q* Consider the compound CCOC(=O)CC(=O)CCl [ethyl 4-chloroacetoacetate] and give its measured Relative activity (%).
*A* 100
